Hi there, I'd appreciate the recorded inhibition at 10 µM for every entry that follows.
Target: c-kit (Homo sapiens)
Sequence (P10721 26-976): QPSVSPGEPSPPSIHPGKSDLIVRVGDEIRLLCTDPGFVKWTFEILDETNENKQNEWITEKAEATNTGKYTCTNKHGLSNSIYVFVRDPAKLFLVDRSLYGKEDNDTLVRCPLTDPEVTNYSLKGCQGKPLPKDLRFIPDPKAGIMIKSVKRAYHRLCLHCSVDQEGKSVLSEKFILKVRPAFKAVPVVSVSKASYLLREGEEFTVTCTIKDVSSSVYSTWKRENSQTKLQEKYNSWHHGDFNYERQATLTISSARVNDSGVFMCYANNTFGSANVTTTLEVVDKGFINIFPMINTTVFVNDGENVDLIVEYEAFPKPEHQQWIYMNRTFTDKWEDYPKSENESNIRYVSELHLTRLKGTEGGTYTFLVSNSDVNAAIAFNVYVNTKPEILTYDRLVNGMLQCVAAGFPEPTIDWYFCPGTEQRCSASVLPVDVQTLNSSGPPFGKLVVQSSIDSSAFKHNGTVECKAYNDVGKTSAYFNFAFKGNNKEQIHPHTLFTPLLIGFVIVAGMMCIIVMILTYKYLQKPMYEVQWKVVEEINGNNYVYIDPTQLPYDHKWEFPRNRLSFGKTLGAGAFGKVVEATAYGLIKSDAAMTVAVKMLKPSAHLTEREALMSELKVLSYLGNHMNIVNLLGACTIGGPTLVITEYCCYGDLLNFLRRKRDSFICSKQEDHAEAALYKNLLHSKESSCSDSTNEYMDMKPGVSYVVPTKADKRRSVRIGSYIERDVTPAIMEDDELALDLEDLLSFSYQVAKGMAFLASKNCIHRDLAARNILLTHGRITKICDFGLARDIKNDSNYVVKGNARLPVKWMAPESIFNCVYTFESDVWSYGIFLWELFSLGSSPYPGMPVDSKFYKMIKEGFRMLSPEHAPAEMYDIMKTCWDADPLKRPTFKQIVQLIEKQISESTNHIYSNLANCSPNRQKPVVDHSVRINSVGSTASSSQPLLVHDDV
Experiment: Generic kinase assay (33P-ATP, Myelin Basic Protein)
Format: biochemical
Conditions: 1 h; class symbol: % inhibition at 10 μM or IC50; read-out: Inhibitory effect on target c-kit

In the examples that follow, each entry is paired with its recorded inhibition at 10 µM.
Item smiles: OCc1cccc(-c2cncc(NCc3cccc(O)c3)c2)c1
Value reported: > 90%
--
Item smiles: CS(=O)(=O)Nc1cccc(-c2cncc(NCc3cccc(O)c3)c2)c1
Value reported: > 90%

For each of the compounds below, note its inhibition at 10 µM.
1. Oc1ccc(-c2cncc(NCc3cccc(O)c3)c2)cc1
2. COc1ccc(Nc2cncc(-c3cccc(NC(C)=O)c3)c2)cc1
3. Oc1cccc(CCNc2cncc(-c3cccc(O)c3)c2)c1
4. CC(=O)Nc1cccc(-c2cncc(NCc3cccc(O)c3)c2)c1
5. COc1ccc(-c2cncc(NCc3cccc(O)c3)c2)cc1OC

Result:
1. > 90%
2. 50 to 90%
3. 50 to 90%
4. > 90%
5. > 90%

Provide inhibition at 10 µM values for the following items, in order.
1. O=C(O)c1cccc(-c2cncc(NCc3cccc(O)c3)c2)c1
2. CN(C)CCNC(=O)c1cccc(-c2cncc(NCc3cccc(O)c3)c2)c1
3. Oc1cccc(CNc2cncc(-c3cccnc3)c2)c1

Result:
50 to 90%
50 to 90%
50 to 90%

Quick one: give me inhibition at 10 µM for each item below, same order please.
1. Cc1ccc(CNc2cncc(-c3cccc(O)c3)c2)cc1O
2. Oc1cccc(CNc2cncc(-c3cncnc3)c2)c1
3. O=C(Nc1cncc(-c2cccc(O)c2)c1)c1cccc(O)c1
4. Oc1cccc(CNc2cncc(-c3ccccc3)c2)c1
5. COc1cncc(-c2cncc(NCc3cccc(O)c3)c2)c1
6. CC(=O)Nc1cccc(-c2cncc(Nc3ccccc3)c2)c1

Result:
1. 50 to 90%
2. 50 to 90%
3. 50 to 90%
4. > 90%
5. 50 to 90%
6. 50 to 90%

Provide the reported inhibition at 10 µM of each entry below, same order.
1. Oc1cccc(CNc2cncc(-c3cccc(O)c3F)c2)c1
2. Nc1cccc(-c2cncc(NCc3cccc(O)c3)c2)c1
3. O=C(NCCO)c1cccc(-c2cncc(NCc3cccc(O)c3)c2)c1
4. OCc1ccc(-c2cncc(NCc3cccc(O)c3)c2)cc1
5. COc1cccc(-c2cncc(NCc3cccc(O)c3)c2)c1F
6. Oc1cccc(CNc2cncc(-c3ccsc3)c2)c1

Result:
50 to 90%
> 90%
> 90%
> 90%
> 90%
50 to 90%

For each of the compounds below, note its inhibition at 10 µM.
1. COC(=O)c1cccc(-c2cncc(NCc3cccc(O)c3)c2)c1
2. Oc1cccc(CNc2cncc(-c3ccc(N4CCOCC4)cc3)c2)c1
3. Oc1cccc(CNc2cncc(-c3cccc(O)c3)c2)c1
4. CS(=O)(=O)c1ccc(-c2cncc(NCc3cccc(O)c3)c2)cc1
5. NC(=O)c1cccc(-c2cncc(NCc3cccc(O)c3)c2)c1

Result:
50 to 90%
> 90%
> 90%
50 to 90%
> 90%

====

Biological target: p56Lck (Homo sapiens)
Sequence (P06239 whole entry, species assumed): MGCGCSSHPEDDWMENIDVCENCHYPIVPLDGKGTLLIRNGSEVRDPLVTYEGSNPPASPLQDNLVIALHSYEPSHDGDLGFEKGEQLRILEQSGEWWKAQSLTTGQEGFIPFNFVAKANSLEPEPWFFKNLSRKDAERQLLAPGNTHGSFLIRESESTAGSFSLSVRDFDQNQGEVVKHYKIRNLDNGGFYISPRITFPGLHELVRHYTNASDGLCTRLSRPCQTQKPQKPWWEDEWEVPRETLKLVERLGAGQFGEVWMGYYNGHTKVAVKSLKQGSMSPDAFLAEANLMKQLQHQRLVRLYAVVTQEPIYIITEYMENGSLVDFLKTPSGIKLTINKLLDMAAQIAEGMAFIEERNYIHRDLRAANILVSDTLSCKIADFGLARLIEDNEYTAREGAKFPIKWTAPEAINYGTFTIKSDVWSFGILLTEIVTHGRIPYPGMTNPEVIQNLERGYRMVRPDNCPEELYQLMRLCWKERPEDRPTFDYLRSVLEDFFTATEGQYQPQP
Test: Generic kinase assay (33P-ATP, Myelin Basic Protein)
Assay type: biochemical
Conditions: 1 h; class symbol: % inhibition at 10 μM or IC50; read-out: Inhibitory effect on target p56Lck
Method: In order to determine the inhibitory effect of the compounds of the subject invention on various target enzymes a generic kinase assay was established. Reactions were performed in 96-Well U-bottom microtiter plates (Greiner Bio-One; Frickenhausen/Germany, Cat. No. 650161), hereinafter designated “Assay Plates”. […] The optimal amount of kinase in the assay was determined to be the amount which yields to a turn-over of about 10% of ATP. […] Samples were now ready for measurement. […]
Give measured inhibition at 10 µM for each item. Keep answers brief.

Known results for compounds:
Compound: OCc1cccc(-c2cncc(NCc3cccc(O)c3)c2)c1 [Compound 216]
inhibition at 10 µM: 50 to 90%

Compound: COC(=O)c1cccc(-c2cncc(NCc3cccc(O)c3)c2)c1 [Compound 243]
inhibition at 10 µM: > 90%

Compound: Oc1cccc(CNc2cncc(-c3cccc(O)c3F)c2)c1 [Compound 231]
inhibition at 10 µM: 50 to 90%

# map each compound to its inhibition at 10 µM
1. NC(=O)c1cccc(-c2cncc(NCc3cccc(O)c3)c2)c1 [Compound 230]
2. CS(=O)(=O)c1ccc(-c2cncc(NCc3cccc(O)c3)c2)cc1 [Compound 206]

Result:
1. > 90%
2. 50 to 90%

Lab note: each compound below needs its inhibition at 10 µM filled in.
1. COc1ccc(-c2cncc(NCc3cccc(O)c3)c2)cc1OC [Compound 223]
2. Oc1cccc(CNc2cncc(-c3cncnc3)c2)c1 [Compound 195]
3. O=C(O)c1cccc(-c2cncc(NCc3cccc(O)c3)c2)c1 [Compound 246]
4. Oc1cccc(CNc2cncc(-c3cccc(O)c3)c2)c1 [Compound 225]
5. CC(=O)Nc1cccc(-c2cncc(NCc3cccc(O)c3)c2)c1 [Compound 221]
6. Nc1cccc(-c2cncc(NCc3cccc(O)c3)c2)c1 [Compound 232]
7. O=C(Nc1cncc(-c2cccc(O)c2)c1)c1cccc(O)c1 [Compound 234]
8. Oc1cccc(CCNc2cncc(-c3cccc(O)c3)c2)c1 [Compound 244]

Result:
["50 to 90%", "50 to 90%", "50 to 90%", "> 90%", "> 90%", "> 90%", "> 90%", "50 to 90%"]

Could you tell me inhibition at 10 µM for each of these compounds? They are listed below.
1. Oc1ccc(-c2cncc(NCc3cccc(O)c3)c2)cc1 [Compound 212]
2. O=C(NCCO)c1cccc(-c2cncc(NCc3cccc(O)c3)c2)c1 [Compound 217]
3. COc1cccc(-c2cncc(NCc3cccc(O)c3)c2)c1 [Compound 239]
4. Oc1cccc(CNc2cncc(-c3ccccc3)c2)c1 [Compound 238]
5. CS(=O)(=O)Nc1cccc(-c2cncc(NCc3cccc(O)c3)c2)c1 [Compound 226]
6. OCc1ccc(-c2cncc(NCc3cccc(O)c3)c2)cc1 [Compound 229]
7. COc1cccc(-c2cncc(NCc3cccc(O)c3)c2)c1F [Compound 236]
8. COc1ccccc1Nc1cncc(-c2cccc(NC(C)=O)c2)c1 [Compound 240]

Result:
> 90%
> 90%
50 to 90%
50 to 90%
50 to 90%
50 to 90%
50 to 90%
50 to 90%

For every listed record, write down its inhibition at 10 µM.
1. CN(C)CCNC(=O)c1cccc(-c2cncc(NCc3cccc(O)c3)c2)c1 [Compound 224]
2. Oc1cccc(CNc2cncc(-c3cccnc3)c2)c1 [Compound 159]
3. Oc1cccc(CNc2cncc(-c3ccc(N4CCOCC4)cc3)c2)c1 [Compound 218]
4. COc1cncc(-c2cncc(NCc3cccc(O)c3)c2)c1 [Compound 222]

Result:
["50 to 90%", "50 to 90%", "50 to 90%", "50 to 90%"]
